measurement notes: Competitive inhibition of Escherichia coli beta-lactamase AmpC N289A mutant using nitrocefin as substrate by UV-Vis spectrophotometry

molecule smiles: O=C(O)/C=C/c1c(B(O)O)sc2ccccc12
value unit: nM
Ki: 50

Reference for the values: ChEMBL document CHEMBL3286389
